target: Pro-neuregulin-1, membrane-bound isoform (Homo sapiens) (UniProt Q02297); test: NRG1 binders on small-molecule microarrays, primary screen, psychiatric disease protein project, biochemical, small-molecule microarray, fluorescence 635/667 (AID 1075); conditions: NRG1 binding, 635 nm fluorescence, higher = more signal;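 also: score combines 667 nm spot fluorescence with signal to noise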
Sequence (Q02297 whole entry, looked up, canonical isoform): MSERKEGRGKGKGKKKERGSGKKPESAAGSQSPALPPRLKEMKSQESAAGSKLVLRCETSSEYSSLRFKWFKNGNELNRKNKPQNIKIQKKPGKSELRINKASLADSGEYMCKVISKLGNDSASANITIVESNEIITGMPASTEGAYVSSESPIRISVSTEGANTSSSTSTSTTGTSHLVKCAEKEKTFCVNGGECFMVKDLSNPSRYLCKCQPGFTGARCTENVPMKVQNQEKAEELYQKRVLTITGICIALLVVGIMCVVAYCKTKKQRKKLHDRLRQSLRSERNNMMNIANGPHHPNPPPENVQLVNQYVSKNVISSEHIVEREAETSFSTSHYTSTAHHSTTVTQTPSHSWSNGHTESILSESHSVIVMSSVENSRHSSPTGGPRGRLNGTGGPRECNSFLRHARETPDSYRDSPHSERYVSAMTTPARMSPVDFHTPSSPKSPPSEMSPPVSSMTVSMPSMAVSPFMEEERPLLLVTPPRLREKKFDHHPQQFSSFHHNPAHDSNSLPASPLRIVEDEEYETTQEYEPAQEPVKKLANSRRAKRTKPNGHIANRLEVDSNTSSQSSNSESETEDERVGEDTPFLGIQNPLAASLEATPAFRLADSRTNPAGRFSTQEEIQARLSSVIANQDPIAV
recordedEndpoint: composite z-score

>>> result("CCOC(=O)C1=CCC(c2ccco2)N(S(=O)(=O)c2ccc(C)cc2)C1 (stereo not drawn)")
1.46
>>> result("O=C1C[C@@](C(=O)NCc2ccccc2)(c2ccc([N+](=O)[O-])cc2)[C@@H](c2ccc(CO)cc2I)N1CC12CC3CC(CC(C3)C1)C2")
0.656
>>> result("CN(C)C(=O)[C@@]1(Cc2ccccc2N=[N+]=[N-])N=C(c2ccc(OCCCO)cc2)O[C@H]1c1ccccc1")
1.2
>>> result("Cc1ccc(N2C(=O)c3ccccc3[C@](C)(C(=O)NCc3ccccc3)[C@@H]2c2ccc(CO)cc2)nc1")
0.64
>>> result("CCCCCCCCCCC(O)C1C=CC2C(=O)N(C)C(=O)C2N1Nc1cc(OC)c(OC)c(OC)c1 (stereo not drawn)")
0.55
>>> result("COC(=O)[C@@]1(Cc2ccc(F)cc2)[C@H]2c3cc(C(=O)N(C)C)n(Cc4ccc(O)c(OC)c4)c3C[C@H]2CN1C(=O)c1ccccc1")
1.26
>>> result("CCOC(=O)C=Cc1ccccc1O")
-0.0345
>>> result("CCOC(=O)C1=CC[C@@H](c2ccccc2)N(S(=O)(=O)c2ccc(C)cc2)[C@H]1C=Cc1ccccc1")
0.941

* * *

test: CREB reporter modulators under forskolin, primary screen, cell-based, PC12, CRE-LacZ reporter, forskolin-stimulated (AID 1146); details: luminescence, 4.5 h, higher = more signal, called active from +8 up or from −8 down;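 also: PC12 cells with 6xCRE LacZ reporter stimulated by forskolin 10 µM; beta-galactosidase reporter signal reflecting CREB driven transcription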
z-score below -0.8 gives F; z-score at or above it gives T.

>>> class("C=C[C@H](C)[C@H](OC(=O)Nc1ccc(OC)cc1)c1ccc(OCCO)cc1")
"T"
>>> class("CN1C(=O)[C@@]2(Cc3ccccc3)N=C(c3ccc(OCCCO)cc3)O[C@H]2c2ccccc21")
"F"
>>> class("[N-]=[N+]=Nc1ccccc1C[C@]1(C(=O)NCc2ccccc2)COC(c2ccc(OCCCO)cc2)=N1")
"F"
>>> class("O=C1O[C@H](c2ccccc2)[C@H](c2ccccc2)N2[C@H]1[C@@H](C(=O)O)[C@]1(C(=O)Nc3ccc(C#CC4(O)CCCCCC4)cc31)[C@H]2c1ccc(O)cc1")
"F"
>>> class("CO[C@H]1O[C@H](CO)[C@@H](OC(=O)Nc2cccc(F)c2)[C@H](OC(=O)Nc2ccccc2-c2ccccc2)[C@H]1OC(=O)Nc1ccccc1-c1ccccc1")
"F"
>>> class("C=C(COC)C(=O)CC[C@@H](OC(=O)c1cccnc1)c1ccccc1OCCO")
"T"
>>> class("C=CCNC(=O)[C@H]1[C@@H]2C(=O)O[C@@H](c3ccccc3)[C@@H](c3ccccc3)N2[C@@H](c2ccc(O)cc2)[C@]12C(=O)N(C(=O)OCCOC)c1ccc(C#CCC(C(=O)OC)C(=O)OC)cc12")
"T"
>>> class("O=C(CS)NCCCCCCNC(=O)[C@@H]1C[C@@H]2C(=O)NCC(=O)N2[C@@H]1c1ccc(O)cc1")
"F"
>>> class("C=CCNC(=O)[C@@H]1[C@H]2C(=O)O[C@H](c3ccccc3)[C@H](c3ccccc3)N2[C@H](c2ccc(O)cc2)[C@@]12C(=O)N(C(=O)OCCOC)c1ccc(C#CCCO)cc12")
"T"
>>> class("COC(=O)[C@@]1(Cc2ccccc2CN=[N+]=[N-])N=C(c2ccc(OCCCO)cc2)O[C@H]1c1ccccc1CN=[N+]=[N-]")
"T"
>>> class("COC(=O)c1c2oc(c1C(=O)OC)C(=O)N1CCC[C@H]1Cn1nncc1CN(Cc1ccccc1)C(=O)N[C@H](CO)CC2")
"T"
>>> class("CCOC(=O)C[C@H]1[C@H](OC(=O)c2ccccc2-c2ccccc2)[C@@H](NC(=O)c2ccc3ccccc3n2)c2cc(OCCCO)ccc2N1C(=O)c1ccccc1")
"T"
>>> class("O=C1c2ccccc2[C@](Cc2ccccc2I)(C(=O)NC2CC2)[C@H](c2ccc(CO)cc2)N1Cc1ccccc1C(F)(F)F")
"T"
>>> class("COC(=O)[C@@]1(Cc2ccc(F)cc2)[C@H]2c3cc(C(=O)N(C)C)n(Cc4ccc(O)c(OC)c4)c3C[C@H]2CN1C(=O)c1ccccc1")
"T"
>>> class("CCOC(=O)C[C@H]1[C@H](OC(=O)c2cc3ccccc3oc2=O)[C@@H](NC(=O)c2ccc3ccccc3c2)c2cc(OCCCO)ccc2N1C(=O)Cc1ccc(OC)cc1")
"F"
>>> class("[N-]=[N+]=NCc1ccccc1[C@@H]1OC(c2ccc(OCCCO)cc2)=N[C@]1(Cc1ccccc1N=[N+]=[N-])C(=O)NCCN1CCOCC1")
"F"
>>> class("O=C(N1CCOCC1)[C@@]1(CCS(=O)(=O)c2ccccc2)N=C(c2ccc(OCCCO)cc2)O[C@H]1c1ccccc1")
"T"
>>> class("COc1ccc([Si](C)(C)[C@H]2[C@H](CC(=O)N3Cc4ccccc4C[C@H]3CO)O[C@@]3(C(=O)N(Cc4ccc(N5C(=O)c6cccc7cccc5c67)cc4)c4ccccc43)[C@@H]2C)cc1")
"F"
>>> class("CC(C)[Si]1(C(C)C)OCc2cc(-c3ccc(-c4ccc(Cl)c(Cl)c4)o3)nc(CCc3ccccc3)c21")
"T"
>>> class("COC(=O)[C@@]1(Cc2ccc(F)cc2)[C@H]2c3cc(C(=O)N(C)C)n(Cc4c(CO)[nH]cc(C)c4=O)c3C[C@H]2CN1C(=O)c1ccccc1")
"T"
>>> class("C#C[C@@H](CC)O[Si](C#CCCCC#N)(C(C)C)C(C)C")
"T"
>>> class("COc1cc(CO)cc(I)c1O[C@H]1C=C(C(=O)NCCO)C[C@@H](NCC2CCCCC2)[C@@H]1O")
"T"
>>> class("NC(=O)N1C(=O)C2C(C1=O)C1C=C(CCCO)C2C(C2CC2)N1Cc1cccc(OC(F)(F)F)c1 (centres undefined)")
"T"
>>> class("CC1CC/C=C\\[C@H]2OC34C=CCN(C(C)(C)C)C(=O)[C@H]3N(C(CO)C(C)C)C(=O)[C@@H]4C2C(=O)O1 (some centres undefined)")
"T"
>>> class("CCCCCN1CC=CC23O[C@@H]4/C=C\\CCC(C)OC(=O)C4[C@H]2C(=O)N(CCCCCCO)[C@@H]3C1=O (some centres undefined)")
"T"
>>> class("CN1C(=O)C2C=CC(C(O)c3ccc(F)cc3)N(NC(=O)OC(C)(C)C)C2C1=O (centres undefined)")
"T"
>>> class("CC1CC/C=C\\[C@H]2OC34C=CCN(CCN5CCOCC5)C(=O)[C@H]3N(C(C)CO)C(=O)[C@@H]4C2C(=O)O1 (some centres undefined)")
"T"
>>> class("C=C(C)C1CCC(C(O)C2C=CC3C(=O)N(C)C(=O)C3N2Nc2cc(OC)c(OC)c(OC)c2)CC1 (centres undefined)")
"T"

* * *

experiment: binders of probe aFSTL3 on microarray, primary screen, stem cell growth factor project, biochemical, small-molecule microarray, fluorescence 635/667 (AID 1064); details: higher = more signal;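 also: measures binding of the biotinylated anti-FSTL3 antibody to printed compounds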
recordedEndpoint: composite z-score

>>> result("CCCCC(=C=CC[C@H](O)c1ccc(OCCO)cc1)C[C@H](O)COCc1ccccc1")
-0.117
>>> result("COc1cccc(/C=C(\\C#N)C(=O)Nc2c(C)n(C)n(-c3ccccc3)c2=O)c1")
-0.408
>>> result("COc1ccc([Si](C)(C)[C@H]2[C@H](CC(=O)N3CCC[C@H]3CO)O[C@@]3(C(=O)N(Cc4ccc(N5CCC5=O)cc4)c4ccccc43)[C@@H]2C)cc1")
-0.589
>>> result("COC(=O)[C@@]1(Cc2ccc(F)cc2)[C@H]2c3cc(C(=O)N(C)C)n(Cc4ccc(O)c(OC)c4)c3C[C@H]2CN1C(=O)c1ccccc1")
0.129

* * *

target: Neurogenic locus notch homolog protein 3 (Homo sapiens) (UniProt Q9UM47); assay: NOTCH3 binders on small-molecule microarray, primary screen, biochemical, 635/667 nm fluorescence (AID 1096); details: NOTCH3 binding, 635 nm fluorescence, higher = more signal
Sequence (Q9UM47 whole entry, looked up): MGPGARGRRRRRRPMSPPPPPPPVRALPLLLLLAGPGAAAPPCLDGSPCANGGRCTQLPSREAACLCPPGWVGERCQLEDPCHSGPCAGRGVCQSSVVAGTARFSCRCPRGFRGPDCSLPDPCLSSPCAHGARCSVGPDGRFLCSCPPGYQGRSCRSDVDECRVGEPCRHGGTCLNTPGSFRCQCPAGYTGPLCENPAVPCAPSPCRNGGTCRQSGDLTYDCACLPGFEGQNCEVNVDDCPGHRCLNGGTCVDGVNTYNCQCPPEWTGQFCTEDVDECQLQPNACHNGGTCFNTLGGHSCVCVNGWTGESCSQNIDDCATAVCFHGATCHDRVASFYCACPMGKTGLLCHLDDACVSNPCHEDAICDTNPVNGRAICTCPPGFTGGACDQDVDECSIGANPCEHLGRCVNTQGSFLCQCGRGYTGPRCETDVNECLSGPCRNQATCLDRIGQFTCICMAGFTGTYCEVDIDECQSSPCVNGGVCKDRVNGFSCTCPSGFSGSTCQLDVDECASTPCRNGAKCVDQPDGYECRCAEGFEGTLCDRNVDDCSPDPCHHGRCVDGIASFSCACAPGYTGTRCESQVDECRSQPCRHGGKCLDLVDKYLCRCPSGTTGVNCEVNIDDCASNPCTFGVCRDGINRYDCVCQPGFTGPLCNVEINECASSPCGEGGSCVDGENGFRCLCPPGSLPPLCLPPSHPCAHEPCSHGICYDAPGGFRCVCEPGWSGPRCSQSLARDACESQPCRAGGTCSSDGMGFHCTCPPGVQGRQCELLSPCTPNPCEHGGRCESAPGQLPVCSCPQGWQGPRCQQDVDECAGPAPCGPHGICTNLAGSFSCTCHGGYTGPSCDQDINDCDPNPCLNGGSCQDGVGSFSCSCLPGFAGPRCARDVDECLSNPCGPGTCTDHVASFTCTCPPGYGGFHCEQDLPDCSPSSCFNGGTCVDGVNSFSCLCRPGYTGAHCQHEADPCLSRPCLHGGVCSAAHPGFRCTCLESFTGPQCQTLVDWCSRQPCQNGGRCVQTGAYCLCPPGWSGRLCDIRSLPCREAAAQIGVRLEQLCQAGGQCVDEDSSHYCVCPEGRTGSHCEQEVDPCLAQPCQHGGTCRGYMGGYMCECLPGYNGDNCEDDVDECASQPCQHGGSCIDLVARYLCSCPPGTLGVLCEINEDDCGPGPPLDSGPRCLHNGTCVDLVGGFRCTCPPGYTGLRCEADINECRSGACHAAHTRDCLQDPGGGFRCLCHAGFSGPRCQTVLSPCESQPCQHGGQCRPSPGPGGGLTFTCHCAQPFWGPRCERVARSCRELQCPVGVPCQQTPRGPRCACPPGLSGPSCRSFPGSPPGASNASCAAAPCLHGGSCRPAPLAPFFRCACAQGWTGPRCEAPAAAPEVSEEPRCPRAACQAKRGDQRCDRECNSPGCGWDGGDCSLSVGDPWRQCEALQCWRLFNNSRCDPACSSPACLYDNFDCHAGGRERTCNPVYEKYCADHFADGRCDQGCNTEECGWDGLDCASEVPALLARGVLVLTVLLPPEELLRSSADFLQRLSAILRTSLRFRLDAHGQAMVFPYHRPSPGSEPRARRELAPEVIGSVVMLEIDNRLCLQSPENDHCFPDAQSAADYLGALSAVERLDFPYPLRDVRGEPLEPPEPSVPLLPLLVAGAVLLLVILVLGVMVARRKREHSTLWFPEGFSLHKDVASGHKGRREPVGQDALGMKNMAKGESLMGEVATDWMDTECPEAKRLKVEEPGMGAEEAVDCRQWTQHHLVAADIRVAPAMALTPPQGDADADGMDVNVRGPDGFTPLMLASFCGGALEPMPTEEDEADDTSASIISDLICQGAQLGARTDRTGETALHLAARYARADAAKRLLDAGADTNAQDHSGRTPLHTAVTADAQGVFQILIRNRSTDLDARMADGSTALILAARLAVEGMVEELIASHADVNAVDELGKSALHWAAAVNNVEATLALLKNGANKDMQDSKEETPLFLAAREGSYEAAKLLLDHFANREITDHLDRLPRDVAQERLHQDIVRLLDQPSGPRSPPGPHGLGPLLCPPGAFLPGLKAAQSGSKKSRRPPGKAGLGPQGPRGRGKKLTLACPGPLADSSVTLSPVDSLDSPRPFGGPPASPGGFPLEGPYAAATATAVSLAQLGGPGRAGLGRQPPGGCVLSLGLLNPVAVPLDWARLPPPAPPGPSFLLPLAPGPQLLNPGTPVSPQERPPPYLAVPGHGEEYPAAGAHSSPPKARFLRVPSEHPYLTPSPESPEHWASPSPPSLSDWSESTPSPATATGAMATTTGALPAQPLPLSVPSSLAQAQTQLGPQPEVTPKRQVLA
Parameter: composite z-score. Scope: all listed entries.
recordedEndpoint: composite z-score

>>> quantitativeresult("CN1C(=O)C2C(C1=O)C1C=C(CCCO)C2C(c2cccs2)N1Cc1cc2c(cc1Br)OCO2 (centres undefined)")
1.03
>>> quantitativeresult("COc1ccc(C(O)C2C=CC3C(=O)N(c4ccccc4)C(=O)C3N2Nc2ccccc2F)cc1 (centres undefined)")
0.842
>>> quantitativeresult("CC(C)C(=C=CC[C@@H](O)c1cccc(OCCO)c1)C[C@@H](O)COCc1ccccc1")
0.541
>>> quantitativeresult("CCCNC(=O)[C@@]1(C)c2ccccc2C(=O)N(Cc2ccccc2)[C@H]1c1ccc(CO)cc1")
-0.127
>>> quantitativeresult("O=C1O[C@H](c2ccccc2)[C@H](c2ccccc2)N2[C@H]1[C@@H](C(=O)O)[C@]1(C(=O)Nc3ccc(C#CC4(O)CCCCCC4)cc31)[C@H]2c1ccc(O)cc1")
0.0139
>>> quantitativeresult("COc1ccc(C#Cc2ccc3c(c2)[C@]2(C(=O)N3)[C@H](C(=O)Nc3nc4ccccc4s3)[C@H]3C(=O)O[C@H](c4ccccc4)[C@H](c4ccccc4)N3[C@@H]2c2ccccc2OCCO)cc1")
1.13
>>> quantitativeresult("CN1C=C(C(=O)OCCS(C)(=O)=O)C(C(=O)OCCS(C)(=O)=O)=CC(c2ccc(CO)cc2)=CC1c1cccs1 (centres undefined)")
0.407
>>> quantitativeresult("O=C(O)[C@H]1C[C@H]2C(=O)N[C@@H](Cc3ccccc3)C(=O)N2[C@H]1c1cccc(OCCO)c1")
0.814
>>> quantitativeresult("NC(=O)NCC#Cc1ccc2c(c1)[C@]1(C(=O)N2)[C@H](C(=O)N2CCN(c3ncccn3)CC2)[C@H]2C(=O)O[C@H](c3ccccc3)[C@H](c3ccccc3)N2[C@@H]1c1ccc(OCCO)cc1")
1.13
>>> quantitativeresult("C=C(/C(=C/C[C@H](OC(=O)c1ccncc1)c1ccccc1OCCO)c1cnc2ccccc2c1)C(C)C")
1.02
>>> quantitativeresult("COc1ccc([Si](C)(C)[C@@H]2[C@@H](CCn3cc([C@H](O)c4ccccc4)nn3)O[C@]3(C(=O)N(c4ccccc4)c4ccccc43)[C@H]2C)cc1")
0.281
>>> quantitativeresult("COc1ccc([Si](C)(C)[C@@H]2[C@@H](CCn3cc([C@H](O)c4ccccc4)nn3)O[C@]3(C(=O)N(Cc4cccc(N5C(=O)c6cccc7cccc5c67)c4)c4ccccc43)[C@H]2C)cc1")
-0.048
>>> quantitativeresult("CC(C)C[C@@H]1NC(=O)[C@H]2C[C@@H](C(=O)NCCCCCN)[C@@H](c3cccc(OCCO)c3)N2C1=O")
0.135
>>> quantitativeresult("COCCCNC(=O)[C@@]1(c2ccc([N+](=O)[O-])cc2)CC(=O)N(C(C)C)[C@@H]1c1ccc(CO)cc1")
-0.617
>>> quantitativeresult("CCOC(=O)C1=C[C@@H](C(C)(C)C)N(S(=O)(=O)c2ccc(C)cc2)[C@H]1c1ccc(C)cc1")
1.02
>>> quantitativeresult("O=C(N1CCOCC1)[C@@]1(CCS(=O)(=O)c2ccccc2)N=C(c2ccc(OCCCO)cc2)O[C@H]1c1ccccc1")
1.15
>>> quantitativeresult("CCOC(=O)C[C@H]1[C@H](OC(=O)c2cc3ccccc3oc2=O)[C@@H](NC(=O)c2ccc3ccccc3c2)c2cc(OCCCO)ccc2N1C(=O)Cc1ccc(OC)cc1")
0.872
>>> quantitativeresult("COc1ccc(C(=O)Nc2cccc(CN3C(=O)[C@@]4(O[C@@H](CC(=O)N(CCO)Cc5ccccc5)[C@H]([Si](C)(C)c5ccc(OC)cc5)[C@H]4C)c4ccccc43)c2)cc1")
0.487
>>> quantitativeresult("[N-]=[N+]=Nc1ccccc1C[C@]1(C(=O)O)N=C(c2ccc(OCCCO)cc2)O[C@H]1c1ccccc1")
0.703
>>> quantitativeresult("COc1cc2c(cc1O)C(c1ccc(CN3CCCC3)cc1)N(C)CC2 (centres undefined)")
-0.579
>>> quantitativeresult("CN1C(=O)C2C=CC(C(O)c3ccc(I)cc3)N(Nc3ccccc3)C2C1=O (centres undefined)")
1.09
>>> quantitativeresult("COc1ccc([Si](C)(C)[C@H]2[C@H](CCO)O[C@@]3(C(=O)N(Cc4ccccc4)c4ccc(N5CCOC5=O)cc43)[C@@H]2C)cc1")
1.12
>>> quantitativeresult("CCOC(=O)C1=CC[C@@H](c2ccccc2)N(S(=O)(=O)c2ccc(C)cc2)[C@H]1C=Cc1ccccc1")
0.258
>>> quantitativeresult("O=C(CS)NCCCCCCNC(=O)[C@@H]1C[C@@H]2C(=O)NCC(=O)N2[C@@H]1c1ccc(O)cc1")
-0.028
>>> quantitativeresult("CCCCCN1CC=CC23O[C@@H]4C=CCOC(=O)[C@@H]4[C@H]2C(=O)N(CCO)[C@@H]3C1=O (some centres undefined)")
-0.195
>>> quantitativeresult("O=C1C[C@@](C(=O)NCc2ccccc2)(c2ccc([N+](=O)[O-])cc2)[C@@H](c2ccc(CO)cc2I)N1CC12CC3CC(CC(C3)C1)C2")
1.09
>>> quantitativeresult("COC(=O)[C@@]1(Cc2ccc(F)cc2)[C@H]2c3cc(C(=O)N4CCCC4)n(CC4CC4)c3C[C@H]2CN1C(=O)c1ccccc1")
1.1
>>> quantitativeresult("CN1C(=O)[C@@H]2[C@@H](CC(COc3ccccc3)=C([C@H](O)CCc3ccccc3)[C@@H]2CO)C1=O")
-0.932
>>> quantitativeresult("[N-]=[N+]=NCc1ccccc1[C@H]1OC(c2ccc(OCCCO)cc2)=N[C@@]1(CCS(=O)(=O)c1ccccc1)C(=O)NCc1ccccc1")
1.13
